tested on: PNT2 cells; experiment: Cytotoxicity in normal prostate cell line PNT2; type: cell-based; conditions: read-out: GI50 (cytotoxicity)
Would you mind telling me the reported GI50 of each entry?

CCn1c2ccc(CNCCOCCOCCOCCn3cc(COc4ccc(CCc5nc6cc(-c7c(C)noc7C)ccc6n5CCN5CCOCC5)cc4F)nn3)cc2c2ccc(-c3cc(C)cs3)cc21    > 10 µM

Please turn your attention to the following entry.
Give PNT2 cells GI50 for the following compound: CCn1c2ccc(CNC)cc2c2ccc(-c3cc(C)cs3)cc21 [PK9328, reference compound] > 10 µM
